# Tested on: THRa homodimer (NR concentration 90 nM)
# protocol_notes: PBM binding z-score (relative to random genomic background probes); higher = stronger binding; sequences stand for … in GC…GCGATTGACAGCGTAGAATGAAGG
experimental_endpoint: PBM binding z-score
Respond using a number only.

Query: Entry `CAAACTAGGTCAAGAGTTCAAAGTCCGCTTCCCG` has what PBM binding z-score?
Result: 1.28

Query: Next sequence: `CGTCCAAGGTCAATACTAGGTCAGTGAAAGCATT`
Result: 3

Query: Now consider `CCTCGGAGGACCGAAGGTCAGAGCTGTCCGCTTT` .
Result: -0.389

Query: Repeat with `CGAACTAGGTCAAGGACAATGAATCTCCGCACGC`
Result: 2.15

Query: Also check `CGTCAAAGTTTAACTAAGGTAACGTAAAGCACGC`
Result: 1.99

Query: Here is the next sequence: `TCGATTAGGTTAGTCGGGGCATTCAGCCAACATA`
Result: 0.446

Query: Same again, this time with `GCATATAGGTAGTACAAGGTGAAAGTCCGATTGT`
Result: 1.02

Query: Next sequence: `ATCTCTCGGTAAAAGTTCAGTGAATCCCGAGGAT`
Result: 0.0329

Query: // next record `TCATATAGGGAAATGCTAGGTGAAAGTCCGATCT`
Result: 0.365

Query: Follow-up entry: `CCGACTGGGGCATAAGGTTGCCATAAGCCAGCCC`
Result: -0.00565

Query: Now consider `ACTAGTTGGTCAGCTGATGTCACACACAATTCGG` .
Result: 0.161

Query: Okay, and `CAAACTAGATCAAGAGGTCAAAGTCCGCTTCCCG` ?
Result: 1.67

* * *

# Test system: RXRa homodimer (NR concentration 180 nM)
# protocol_notes: PBM binding z-score (relative to random genomic background probes); higher = stronger binding; sequences stand for … in GC…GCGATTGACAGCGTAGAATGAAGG
experimental_endpoint: PBM binding z-score
Would you mind answering with just the numeric figure?

Query: Any idea what its PBM binding z-score is? The sequence is `CCTTACGGGTCACTCCAGGTTATAACATCGGAGT`
Result: 4.36

Query: Also check `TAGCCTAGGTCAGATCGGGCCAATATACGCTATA`
Result: 1.51

Query: What about `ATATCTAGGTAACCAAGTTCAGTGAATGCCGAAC` ?
Result: 0.83

Query: Can you handle `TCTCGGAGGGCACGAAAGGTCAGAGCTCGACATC` next?
Result: 5.58

Query: Request: `AATACAGGGTCATCGTAGGCCAGCGTACGCACAG`
Result: 6.47

Query: What do you get for `CCTTACGGGTCACTCCAGGTTATAGCATCGGAGT` ?
Result: 4.36

Query: How about this sequence: `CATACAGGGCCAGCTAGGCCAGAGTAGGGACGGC`
Result: -0.173

Query: Now give it for `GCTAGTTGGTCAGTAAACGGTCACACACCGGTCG` too.
Result: 0.347

Query: How about this sequence: `TCTCAAAGTTCAAAGGTAACGTAAGTATCCACAC`
Result: 7.17

Query: What would you report for `CCTGCTAGGTCATAGTCAGCTAATCTACAGTATG` ?
Result: 2.13

Query: Request: `CGTCCAAGGTCATAGGAGGTCAGTGAAGACAGAT`
Result: 6.4

Query: Same for `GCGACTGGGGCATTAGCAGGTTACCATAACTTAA`
Result: 0.0797

Taken from the supplement of paper PMC6555819.
